Method: Safety index, ratio of IC50 of compound to IC50 of daunorubicin for cytotoxicity against human HEK293 cells assessed as reduction in cell viability incubated for 72 hrs by MTT assay
Assay type: cell-based
Measurement conditions: read-out: Ratio IC50
Documented selectivity ratio at 72 h across a set of compounds

GET /values?readout=selectivity ratio at 72 h&item= COc1cccc2c1C(=O)c1c(O)c3c(c(O)c1C2=O)C[C@@](O)(C(C)=O)C[C@@H]3O[C@H]1C[C@H](NC(=O)Cn2cc(COCc3cc4c(cc3Br)OCO4)nn2)[C@H](O)[C@H](C)O1 30 to 40

Now consider a different compound.
GET /values?readout=selectivity ratio at 72 h&item= COc1cccc2c1C(=O)c1c(O)c3c(c(O)c1C2=O)C[C@@](O)(C(C)=O)C[C@@H]3O[C@H]1C[C@H](NC(=O)Cn2cc(COCc3ccc4c(c3)OCO4)nn2)[C@H](O)[C@H](C)O1 30 to 40
